# System: HL-60(TB) leukemia
# experiment notes: NCI tumour cell line growth inhibition, 48 h
Kindly supply the reported GI50 values for the records listed here.

- compound: "COc1ccccc1CCN=C1NC(=O)/C(=C/c2ccc3ncccc3c2)S1"
  assayed target: "HL-60(TB) leukemia"
  GI50: "4.2 µM"

Parameter requested: GI50. Apply to each item below.
1. O=C(/C=C/c1cccnc1)NCCCCC1CCCN(C(=O)c2ccccc2)C1 (configuration not stated)
2. CC[C@H](Nc1nc(NCc2cnc(C)cc2C)c2ncn(C(C)C)c2n1)[C@@H](C)O
3. CCn1c(CN2CCN(Cc3ccccc3)CC2)nc2cc(NC(=O)c3cccs3)ccc21
4. COc1cc(C)c(Cl)cc1C1=NN(c2ccc(S(N)(=O)=O)cc2)C(/C=C/c2ccccc2)C1 (configuration not stated)
5. CC(=O)[CH-]C(=O)c1ccccc1.CC(=O)[CH-]C(=O)c1ccccc1.CC(C)CCCC(C)[C@H]1CCC2[C@@H]3CC=C4C[C@@H]([O-])CC[C@]4(C)C3CC[C@@]21C.CC[O-].[Ti+4] (some centres not stated)

[A]
1. 44.7 µM
2. 0.27 µM
3. 20.5 µM
4. 3.6 µM
5. 42.3 µM

[Q] Give the measured GI50 for CC(C)(C)c1nn(-c2ccccc2)c2c1C(=O)CSC(c1ccccc1Cl)N2 (configuration not stated)
[A] 2.28 µM

###

# Test system: BT-549 breast
# experiment notes: NCI tumour cell line growth inhibition, 48 h
Give TGI for every item shown.

As a guide, the following entries are already answered.
- compound: "c1cc(Sc2nc(Sc3ccncc3)nc(Sc3ccncc3)n2)ccn1"
  TGI: "> 100 µM"
- compound: "Cc1nc2sc3ccccc3n2c(=O)c1N=Nc1ccc(Br)cc1"
  TGI: "> 100 µM"

Lab note: each compound below needs its TGI filled in.
1. COc1c(C)c2c(c(=O)c3c(C)cccc3n2C)c2c1c(=O)c1c(C)cccc1n2C
2. CC(=O)N1OC(C)CC1Nc1ccc(Br)cc1 (centres undefined)
3. O/C(=C\c1nc2ccccc2nc1/C=C(\O)c1ccc(Cl)cc1)c1ccccc1
4. O=C(CN1CCN(CCCOc2c(-c3ccccc3)oc3ccccc3c2=O)CC1)Nc1ccc(Cl)cc1C(=O)c1ccccc1Cl
5. COC1CC2CCC(C)C(O)(O2)C(=O)C(=O)N2CCCCC2C(=O)OC(C(C)CC2CCC(O)C(OC)C2)CC(=O)C(C)C=C(C)C(O)C(OC)C(=O)C(C)CC(C)/C=C/C=C/C=C1C (centres undefined)
6. OC1(c2ccccc2)CC2CCC(C1)N2CCCC1(c2ccc(F)cc2)OCCO1 (centres undefined)
7. O=C1CC(O)c2c(Br)sc(Br)c21 (centres undefined)

[A]
> 10 µM
> 100 µM
> 100 µM
40.5 µM
11 µM
> 100 µM
63.1 µM

###

Give measured TGI for each item. Keep answers brief.
# System: DU-145 prostate
# experiment notes: NCI tumour cell line growth inhibition, 48 h
One number for each entry, in µM.

- molecule: "COc1cc(C)c(Cl)cc1C1=NN(c2ccc(S(N)(=O)=O)cc2)C(/C=C/c2ccccc2)C1 (stereo unspecified)"
  TGI (µM): 16.7

Provide the reported TGI of each entry below, same order.
1. N=C(c1ccc2ccccc2c1)c1ccccc1Cc1ccccc1
2. O=C1c2cc3c(cc2-c2c1c1ccc(Cl)cc1c(=O)n2CCCNCCO)OCO3
3. C/C(=N\Nc1cc(C)c2cc(C)ccc2n1)c1ccccn1
4. C=CC[N+]12CN3CN(CN(C3)C1)C2

[A]
96.6
1.68
4.8
46.9

###

# System: NCI-H226 lung
# experiment notes: NCI tumour cell line growth inhibition, 48 h; in the data active means GI50 below about 0.43 µM; inactive means the rest
Your answer must be one of the following: 1 for active, 0 for inactive

These solved cases illustrate the format of a correct answer.
- compound: "CCn1c(CN2CCN(Cc3ccccc3)CC2)nc2cc(NC(=O)c3cccs3)ccc21"
  class assignment: 0
- compound: "CC1=C2C[C@H]3[C@@H](CC[C@@H]4CC(NS(C)(=O)=O)CC[C@@]43C)[C@@H]2CC[C@@]2(C1)O[C@@H]1C[C@H](C)CN[C@H]1[C@H]2C (stereo partly specified)"
  class assignment: 0
- compound: "CC[C@H](Nc1nc(NCc2cnc(C)cc2C)c2ncn(C(C)C)c2n1)[C@@H](C)O"
  class assignment: 1
- compound: "CC1(C)N=C(N)N=C(N)N1c1ccc(OCCCCOc2ccc(S(=O)(=O)F)cc2)c(Cl)c1"
  class assignment: 0
- compound: "N[C@@H]1CCCC[C@H]1N.O=C([O-])C(=O)[O-].[Pt+4]"
  class assignment: 0

[Q] Hello, I am checking results. What call was entered for "Cc1ccccc1N=Nc1ccc(NC(=O)c2ccnn2C)c(C)c1" ?
[A] 0

[Q] Could you kindly confirm the outcome this assay logged for "CCCc1cc2c(=O)c(C(=O)OC)c[nH]c2cc1N(CC)CC" ?
[A] 0

[Q] Hi team, can someone confirm the assay call for "NC(N)=N/N=C\c1cccc(OCc2ccccc2)c1" ?
[A] 0

[Q] Record request — test call for "COc1ccc(-n2nnnc2-c2c[nH]c3c(F)cc(F)cc23)cc1"
[A] 0

[Q] Hi, do you know how O=C1NC(O)C(c2c[nH]c3ccccc23)=C1c1c[nH]c2ccccc12 (stereo unspecified) came out in this test?
[A] 0

###

Kindly state TGI for each of the entries shown.
# System: ACHN renal
# experiment notes: NCI tumour cell line growth inhibition, 48 h
Give bare numbers, in µM.

- structure: "CC(C)c1cc(CN(C)C)c(O)c(C(C)(C)C)c1"
  reading: 32.3

[Q] Supply recorded TGI for "CCCc1cc2c(=O)c(C(=O)OC)c[nH]c2cc1N(CC)CC" here.
[A] 60.9

###

Provide the recorded TGI for the entries that follow.
# Test system: NCI/ADR-RES ovarian
# experiment notes: NCI tumour cell line growth inhibition, 48 h

Example entries begin here.
- molecule: "COc1cc(CNc2ccc3nc4n(c(=O)c3c2)CCCCC4)cc(OC)c1OC"
  reading: "> 100 µM"
- molecule: "O/C(=C\\c1nc2ccccc2nc1/C=C(\\O)c1ccc(Cl)cc1)c1ccccc1"
  reading: "> 100 µM"
- molecule: "CN(C)c1ccc(/C=c2/c3ccccc3n3nc4ccccc4c23)cc1"
  reading: "> 100 µM"
- molecule: "O=C1NC(O)C(c2c[nH]c3ccccc23)=C1c1c[nH]c2ccccc12 (stereo not given)"
  reading: "> 25 µM"

[Q] Read the entry "COC(=O)c1c2c(c(C)[n+]([O-])c1C)C(=O)C=C(NCc1ccc(F)c(Cl)c1)C2=O" and write its reported TGI.
[A] 1.63 µM

###

# Test system: A498 renal
# experiment notes: NCI tumour cell line growth inhibition, 48 h
Record form. Attribute: TGI. Fill in for each entry.
Give bare numbers, in µM.

- compound: "C=CC(c1ccccc1)[C@@]1(OC(C)=O)C(=O)C(=O)OC1C1COC(C)(C)O1 (stereo not given in full)"
  TGI / µM: 47.9

Now let's try a different one.
[Q] State its TGI: "COc1ccc(-c2c(=O)[nH]n3c(=S)nc(-c4ccccc4)[nH]c23)cc1OC"
[A] 33.1

###

# System: NCI-H23 lung
# experiment notes: NCI tumour cell line growth inhibition, 48 h
measured endpoint: TGI

Worked examples follow.
- molecule: "Cn1c(=O)nc2n(-c3cccc(Br)c3)c3ccccc3nc-2c1=O"
  reading: "4.91 µM"
- molecule: "CC(C)=NN/C(=N\\S(=O)(=O)c1ccc(C)cc1)Nc1ccc(Cl)cc1"
  reading: "> 100 µM"
- molecule: "C/C(=N\\Nc1cc(C)c2cc(C)ccc2n1)c1ccccn1"
  reading: "10.2 µM"
- molecule: "Nc1c(Br)cc(Br)c2c1[nH]c(=O)c1ccccc12"
  reading: "> 100 µM"
- molecule: "COC(=O)C1(c2cc3ccccc3n2S(=O)(=O)c2ccccc2)CC2C=CC1NC2 (stereo not drawn)"
  reading: "6.85 µM"

Required: TGI, one value per molecule below.
1. N#CN=C(N)NC(=O)/C=C/C=C/c1ccc(Cl)cc1
2. CCN=C(NNc1ccc([N+](=O)[O-])cc1)P(=O)(OC(C)C)OC(C)C
3. CCOC(=O)C(/C=N\C(=S)Nc1ccc(Cl)c(Cl)c1)=C(/O)c1ccccc1

[A]
> 100 µM
> 100 µM
> 100 µM

// for each molecule in input: emit TGI
1. CC1(C)O[C@@H]2[C@@H](COC(=O)c3ccccc3)C[C@@H](C#N)[C@@H]2O1
2. Cc1ccc(NN=NCCCCN)cc1
3. O=C1/C(=C/c2ccccc2)CN(C(=O)c2cccnc2)C/C1=C\c1ccccc1
4. Oc1cc(-c2ccccc2)cn2c1nc1ccccc12

[A]
["> 100 µM", "> 100 µM", "5.19 µM", "> 100 µM"]

Hi team, please reply with TGI for each item in this list.
1. O=C(NC(CS)C(=O)O)c1cccc2c(=O)c3ccccc3[nH]c12 (stereo not drawn)
2. N[C@@H]1CCCC[C@H]1N.O=C([O-])C(=O)[O-].[Pt+4]
3. Cn1c(/C=C(\C#N)c2ccccc2)nc2c(N3CCOCC3)nc(Cl)nc21
4. N#Cc1nc2c(S(=O)(=O)c3ccccc3)c(N)n(Cc3cccnc3)c2nc1C#N
5. BrC1=CC=C2NC=CC3=CC=NC1C32 (stereo not drawn)
6. COC(=O)/C([Se]c1c(C)cc(C)cc1C)=C(\[Se]c1c(C)cc(C)cc1C)C(=O)OC
7. COC(=O)c1sc2ncc3c(c2c1N)CCCCCC3
8. O=C1C(N2CCNCC2)=C(Cl)C(=O)c2ncccc21

[A]
["> 100 µM", "15.2 µM", "3.2 µM", "> 100 µM", "> 82.8 µM", "> 100 µM", "> 100 µM", "> 10 µM"]
